Molecular target: randomly biotinylated human FIXa (human, UniProt P00740 47-191; P00740 227-461, randomly biotinylated (NHS-d-biotin))
Sequence (P00740 47-191, chain 1 of 2): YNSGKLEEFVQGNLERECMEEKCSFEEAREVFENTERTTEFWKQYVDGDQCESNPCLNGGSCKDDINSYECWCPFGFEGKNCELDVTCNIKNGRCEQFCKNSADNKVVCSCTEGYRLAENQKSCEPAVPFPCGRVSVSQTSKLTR
Sequence (P00740 227-461, chain 2 of 2): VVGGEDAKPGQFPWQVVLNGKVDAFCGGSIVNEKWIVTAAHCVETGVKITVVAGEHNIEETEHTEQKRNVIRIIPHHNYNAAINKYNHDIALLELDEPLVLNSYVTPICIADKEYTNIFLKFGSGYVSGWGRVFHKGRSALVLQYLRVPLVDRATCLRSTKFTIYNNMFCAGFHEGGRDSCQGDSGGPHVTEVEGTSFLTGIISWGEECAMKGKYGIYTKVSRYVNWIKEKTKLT
Experiment: BLI (Octet) in-tandem binning on biotinylated FIXa, 330 nM each; competitor (1st antibody): mAb01-2434
reportedMetric: interferometry response value
In your answer, state the number alone without any accompanying words.

Below, each entry is followed by its recorded interferometry response value result.
[
  {
    "binder": "224F3 (mAb01-1582) (antibody, V domains shown) VH: QVQMQQSGAELVKPGASVKLSCKASGYTFTSQDINWVRQRPEQGLEWIGWIFPGDGSTKYNEKLKGKATLTTDKSSSTAFMQLSRLTSEDSAVYFCARSAYYRYDGSYYYAMDYWGQGTSVTVSS VL: QIVLTQSPAIMSASLGEEITLTCSASSSVSYMLWYQQKSGTSPKLLIYTTSNLASGVPSRFSGTGSGTFYSLTISSVEAEDAADYYCHQWSSYPRTFGGGTKLEIKR",
    "interferometry response value": 1.69
  },
  {
    "binder": "mAb01-9994 (antibody, V domains shown, Bivalent IgG) VH: EVQLVESGGGLVQPGRSLRLSCAASGFTFHDYAMHWVRQVPGKGLEWVSGISWKGDIGGYVDSVKGRFTISRDNEKNSLYLQMNSLRAEDTALYYCVKSYGSGSFYNAFDSWGQGTLVTVSS VL: DIQMTQSPSTLSASVGDRVTITCRASQSISSWLAWYQQKPGKAPKFLIYKASRLDRGTPSRFSGSGSGTEFSLTISSLQPDDFATYYCLEYSSYIRTFGQGTKVEIK",
    "interferometry response value": 0.56
  },
  {
    "binder": "mAb01-9978 (antibody, V domains shown, Bivalent IgG) VH: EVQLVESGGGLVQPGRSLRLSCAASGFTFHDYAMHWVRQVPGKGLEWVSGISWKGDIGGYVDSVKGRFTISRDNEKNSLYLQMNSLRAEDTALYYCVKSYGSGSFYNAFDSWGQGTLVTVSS VL: DIQMTQSPSTLSASVGDRVTITCRASQSISSWLAWYQQKPGKAPKLLIYKASRLERGTPSRFSGSGSGTEFSLTISSLQPDDFATYYCLEYSSYIRTFGQGTKVEIK",
    "interferometry response value": 0.34
  }
]

Okay, next one:
INPUT: State the recorded interferometry response value for this entry: mAb01-9933 (antibody, V domains shown, Bivalent IgG) VH: EVQLVESGGGLVQPGRSLKLSCAASGFTFDDYAMHWVRQVPGKGLEWVSGISWKGDIGGYVDSVKGRFTISRDNAKNSLYLQLNSLRAEDTALYYCAKSYGSGSFYNAFDSWGQGTLVTVSS VL: DIQMTQSPSTLSASAGDEVTITCRASQSISSWLAWYQQKPGKAPKLLIYKASKLDRGVPSRFSGSGSGTEFSLTISDLQPDDFATYYCLEYSSYIRTFGQGTKVEIK
OUTPUT: 0.46
